Task for the reader: assign each of the following compounds its reported normalized area under the dose-response curve.
tested on: KMS28PE (cancer type: MM); assay: normalized area under the dose-response curve (viability relative to DMSO control) (fraction); higher = less sensitive (more viable cells); conditions: exposure time not given
Counter-ions that a name gives are not always drawn.
Please give only the number in your answer, with no unit.

I would be grateful if you could share the reported normalized area under the dose-response curve for COc1cc(C(=O)O)ccc1NC(=O)[C@@H]1N[C@@H](CC(C)(C)C)[C@](C#N)(c2ccc(Cl)cc2F)[C@H]1c1cccc(Cl)c1F [Idasanutlin] . 0.922

Moving on to the next compound: Nc1ncn([C@H]2C[C@H](O)[C@@H](CO)O2)c(=O)n1 [Decitabine] 0.778

Moving on to the next compound: COc1cc(Nc2ncc3c(n2)-c2ccc(Cl)cc2C(c2c(F)cccc2OC)=NC3)ccc1C(=O)O [Alisertib] 0.918

Moving on to the next compound: Cn1c(CCCC(=O)O)nc2cc(N(CCCl)CCCl)ccc21 [Bendamustine hydrochloride] 0.847

###

tested on: EJM (cancer type: MM); assay: normalized area under the dose-response curve (viability relative to DMSO control) (fraction); higher = less sensitive (more viable cells); details: exposure time not given
Lab note: anything with normalized area under the dose-response curve at or over 0.5 counts as True; the rest go in False.

Check this compound for normalized area under the dose-response curve at or above 0.5: CO[C@H]1C[C@@H]2CC[C@@H](C)[C@@](O)(O2)C(=O)C(=O)N2CCCC[C@H]2C(=O)O[C@H]([C@H](C)C[C@@H]2CC[C@@H](OCCO)[C@H](OC)C2)CC(=O)[C@H](C)/C=C(\C)[C@@H](O)[C@@H](OC)C(=O)[C@H](C)C[C@H](C)/C=C/C=C/C=C/1C True

Moving on to the next compound: CC(C)C[C@H](NC(=O)[C@H](Cc1ccccc1)NC(=O)c1cnccn1)B(O)O False

Moving on to the next compound: Cc1ccc(F)c(NC(=O)Nc2ccc(-c3cccc4[nH]nc(N)c34)cc2)c1 True

Moving on to the next compound: CCc1cnn2c(NCc3ccc[n+]([O-])c3)cc(N3CCCC[C@H]3CCO)nc12 False

Moving on to the next compound: Cc1ccc(C(=O)Nc2ccc(CN3CCN(C)CC3)c(C(F)(F)F)c2)cc1C#Cc1cnc2cccnn12 False

Moving on to the next compound: COc1cc(N2CCC(N3CCN(C)CC3)CC2)ccc1Nc1ncc(Cl)c(Nc2ccccc2P(C)(C)=O)n1 True

###

system: MM1.S (cancer type: MM); experiment: normalized area under the dose-response curve (viability relative to DMSO control) (fraction); higher = less sensitive (more viable cells); details: exposure time not given
Task for the reader: assign each of the following compounds its reported normalized area under the dose-response curve.
Please give only the number in your answer, with no unit.

I would be grateful if you could share the reported normalized area under the dose-response curve for CC(C)(O)CNc1nc(Nc2ccnc(C(F)(F)F)c2)nc(-c2cccc(C(F)(F)F)n2)n1 [Enasidenib (Agios ag-221)] . 0.8

Moving on to the next compound: COc1cc(Nc2ncc3c(n2)-c2ccc(Cl)cc2C(c2c(F)cccc2OC)=NC3)ccc1C(=O)O [Alisertib] 0.85

Moving on to the next compound: CC(=O)Nc1cccc(-n2c(=O)n(C3CC3)c(=O)c3c(Nc4ccc(I)cc4F)n(C)c(=O)c(C)c32)c1 [Trametinib] 0.71

Moving on to the next compound: Nc1cc(C(F)(F)F)c(-c2cc(N3CCOCC3)nc(N3CCOCC3)n2)cn1 [Buparlisib] 0.3

Moving on to the next compound: CC[C@H](Nc1ncnc2[nH]cnc12)c1nc2cccc(F)c2c(=O)n1-c1ccccc1 [Idelalisib] 0.78

Moving on to the next compound: COc1cc2nccc(Oc3ccc(NC(=O)NC4CC4)c(Cl)c3)c2cc1C(N)=O [Lenvatinib] 0.88

Moving on to the next compound: C=CC(=O)Nc1cc(Nc2nccc(-c3cn(C)c4ccccc34)n2)c(OC)cc1N(C)CCN(C)C [Osimertinib] 0.44

Moving on to the next compound: COc1cc(N2CCC(N3CCN(C)CC3)CC2)ccc1Nc1ncc(Cl)c(Nc2ccccc2P(C)(C)=O)n1 [Brigatinib] 0.46

###

system: Mino (cancer type: Mantle); assay: normalized area under the dose-response curve (viability relative to DMSO control) (fraction); higher = less sensitive (more viable cells); settings: exposure time not given
Lab note: anything with normalized area under the dose-response curve at or over 0.8 counts as Criterion met; the rest go in Criterion not met.

Check this molecule for normalized area under the dose-response curve at or above 0.8: C[C@@H](Oc1cc(-c2cnn(C3CCNCC3)c2)cnc1N)c1c(Cl)ccc(F)c1Cl [Crizotinib] Criterion not met

Moving on to the next molecule: C=CC(=O)N1CCC[C@@H](n2nc(-c3ccc(Oc4ccccc4)cc3)c3c(N)ncnc32)C1 [Ibrutinib] Criterion not met

Moving on to the next molecule: Cc1sc2c(c1C)C(c1ccc(Cl)cc1)=N[C@@H](CC(=O)Nc1ccc(O)cc1)c1nnc(C)n1-2 [otx-015] Criterion not met

Moving on to the next molecule: COc1nc(N)nc2c1ncn2[C@@H]1O[C@H](CO)[C@@H](O)[C@@H]1O [Nelarabine] Criterion met

Moving on to the next molecule: Cc1ccc(C(=O)Nc2ccc(CN3CCN(C)CC3)c(C(F)(F)F)c2)cc1C#Cc1cnc2cccnn12 [Ponatinib] Criterion not met

Moving on to the next molecule: Nc1cccc2c1C(=O)N(C1CCC(=O)NC1=O)C2=O (stereo not given) [Pomalidomide] Criterion met

Moving on to the next molecule: CNC(=O)c1cc(Oc2ccc(NC(=O)Nc3ccc(Cl)c(C(F)(F)F)c3)c(F)c2)ccn1 [Regorafenib] Criterion met

Moving on to the next molecule: Cc1noc2c1-c1ccccc1C(c1ccc(Cl)cc1)=N[C@H]2CC(N)=O [CPI0610] Criterion not met

Moving on to the next molecule: C[C@@H]1CCN(C(=O)CC#N)C[C@@H]1N(C)c1ncnc2[nH]ccc12 [Tofacitinib] Criterion met

Moving on to the next molecule: CO[C@H]1C[C@@H]2CC[C@@H](C)[C@@](O)(O2)C(=O)C(=O)N2CCCC[C@H]2C(=O)O[C@H]([C@H](C)C[C@@H]2CC[C@@H](OCCO)[C@H](OC)C2)CC(=O)[C@H](C)/C=C(\C)[C@@H](O)[C@@H](OC)C(=O)[C@H](C)C[C@H](C)/C=C/C=C/C=C/1C [Everolimus] Criterion not met

Moving on to the next molecule: O=C(/C=C\n1cnc(-c2cc(C(F)(F)F)cc(C(F)(F)F)c2)n1)NNc1cnccn1 [Selinexor] Criterion not met

Moving on to the next molecule: COc1cc(C(=O)O)ccc1NC(=O)[C@@H]1N[C@@H](CC(C)(C)C)[C@](C#N)(c2ccc(Cl)cc2F)[C@H]1c1cccc(Cl)c1F [Idasanutlin] Criterion met

###

test system: NCI-H929 (cancer type: MM); assay: normalized area under the dose-response curve (viability relative to DMSO control) (fraction); higher = less sensitive (more viable cells); conditions: exposure time not given
Counter-ions that a name gives are not always drawn.
Lab note: anything with normalized area under the dose-response curve at or over 0.8 counts as condition met; the rest go in condition not met.

Check this molecule for normalized area under the dose-response curve at or above 0.8: CN(C)C/C=C/C(=O)Nc1cc2c(Nc3ccc(F)c(Cl)c3)ncnc2cc1O[C@H]1CCOC1 condition not met

Moving on to the next molecule: CC(=O)Nc1cccc(-n2c(=O)n(C3CC3)c(=O)c3c(Nc4ccc(I)cc4F)n(C)c(=O)c(C)c32)c1 condition not met

Moving on to the next molecule: Cc1cn(-c2cc(NC(=O)c3ccc(C)c(Nc4nccc(-c5cccnc5)n4)c3)cc(C(F)(F)F)c2)cn1 condition met

Moving on to the next molecule: Nc1cccc2c1CN(C1CCC(=O)NC1=O)C2=O (stereo not drawn) [Lenalidomide] condition not met

Moving on to the next molecule: C[C@@H]1CCN(C(=O)CC#N)C[C@@H]1N(C)c1ncnc2[nH]ccc12 condition met

Moving on to the next molecule: Cc1[nH]c(/C=C2\C(=O)Nc3ccc(F)cc32)c(C)c1C(=O)NCCN1CCCC1 condition met

Moving on to the next molecule: C#Cc1cccc(Nc2ncnc3cc(OCCOC)c(OCCOC)cc23)c1 [Erlotinib hydrochloride] condition met

###

tested on: Se-Ax (cancer type: TCL); test: normalized area under the dose-response curve (viability relative to DMSO control) (fraction); higher = less sensitive (more viable cells); conditions: exposure time not given
Counter-ions that a name gives are not always drawn.
measuredParameter: normalized area under the dose-response curve
Please give only the number in your answer, with no unit.

I would be grateful if you could share the reported normalized area under the dose-response curve for CO[C@H]1C[C@@H]2CC[C@@H](C)[C@@](O)(O2)C(=O)C(=O)N2CCCC[C@H]2C(=O)O[C@H]([C@H](C)C[C@@H]2CC[C@@H](OCCO)[C@H](OC)C2)CC(=O)[C@H](C)/C=C(\C)[C@@H](O)[C@@H](OC)C(=O)[C@H](C)C[C@H](C)/C=C/C=C/C=C/1C [Everolimus] . 0.545

Moving on to the next compound: N[C@@H](Cc1ccc(N(CCCl)CCCl)cc1)C(=O)O [Melphalan hydrochloride] 0.778

Moving on to the next compound: O=C1CC[C@H](N2Cc3c(OCc4ccc(CN5CCOCC5)cc4)cccc3C2=O)C(=O)N1 [Iberdomide] 0.953

Moving on to the next compound: Cc1sc2c(c1C)C(c1ccc(Cl)cc1)=N[C@@H](CC(=O)OC(C)(C)C)c1nnc(C)n1-2 [jq1] 0.566

Moving on to the next compound: CC(C)C[C@H](NC(=O)[C@H](Cc1ccccc1)NC(=O)c1cnccn1)B(O)O [Bortezomib] 0.102

Moving on to the next compound: Cc1[nH]c2ccccc2c1CCNCc1ccc(/C=C/C(=O)NO)cc1 [Panobinostat] 0.244

Moving on to the next compound: C[C@@H]1C[C@H]2[C@@H]3CCC4=CC(=O)C=C[C@]4(C)[C@@]3(F)[C@@H](O)C[C@]2(C)[C@@]1(O)C(=O)CO [Dexamethasone] 0.759

Hello, the source for this data is the supplement of paper PMC7214452, in case you need it.
